Catalogue of IC50 readings, one per entry.
- Experimental target: KRAS G12V (Homo sapiens, UniProt P01116+P62937, G12V)
- Sequence (P01116 1-169 isoform P01116-2 G12V limits assumed): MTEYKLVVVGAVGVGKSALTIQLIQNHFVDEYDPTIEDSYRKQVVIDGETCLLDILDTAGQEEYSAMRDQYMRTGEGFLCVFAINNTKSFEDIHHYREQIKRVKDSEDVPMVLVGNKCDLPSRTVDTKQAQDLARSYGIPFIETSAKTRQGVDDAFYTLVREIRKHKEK
- Sequence (P62937 whole entry): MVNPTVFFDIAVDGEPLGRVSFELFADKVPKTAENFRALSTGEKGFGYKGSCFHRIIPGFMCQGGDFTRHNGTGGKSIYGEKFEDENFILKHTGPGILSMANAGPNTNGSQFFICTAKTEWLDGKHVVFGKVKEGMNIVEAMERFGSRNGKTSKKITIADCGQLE
- Protocol text: Disruption of BRAF RBD interaction with Ras (FRET / MOA assay, with Cyclophilin A)
- Format: biochemical
- Condition label: KRAS G12V; read-out: KRAS G12V FRET data IC50

| Compound | IC50 |
| --- | --- |
| C=CC(=O)N1CC[C@H](C(=O)N(C)[C@H](C(=O)N[C@H]2Cc3cc(O)cc(c3)-c3ccc4c(c3)c(c(-c3cccnc3CN(C)C)n4CC)CC(C)(C)COC(=O)[C@@H]3CCCN(N3)C2=O)C(C)C)C1 | 1 to 10 µM |
| CCn1c(-c2cccnc2[C@H](C)OC)c2c3cc(ccc31)-c1csc(n1)C[C@H](NC(=O)[C@H](C(C)C)N(C)C(=O)N1[C@H](C)CN(C)C[C@H]1C)C(=O)N1CCC[C@H](N1)C(=O)OCC(C)(C)C2 | 0.1 to 1 µM |
| CCn1c(-c2cccnc2[C@H](C)OC)c2c3cc(ccc31)-c1csc(n1)C[C@H](NC(=O)[C@H](C(C)C)N(C)C(=O)N1CC(C(C)(C)OC)C1)C(=O)N1CCC[C@H](N1)C(=O)OCC(C)(C)C2 (atropisomer, axis not shown) | 0.1 to 1 µM |
| CCn1c(-c2cccnc2[C@H](C)OC)c2c3cc(ccc31)-c1cc(O)cc(c1)C[C@H](NC(=O)[C@H](C(C)C)N(C)C(=O)[C@H]1CCN(C)C1)C(=O)N1CCC[C@H](N1)C(=O)OCC(C)(C)C2 | 0.1 to 1 µM |
| CCn1c(-c2cccnc2[C@H](C)OC)c2c3cc(ccc31)-c1csc(n1)C[C@H](NC(=O)[C@H](C(C)C)N(C)C(=O)N1CC3CC(C1)N3C)C(=O)N1CCC[C@H](N1)C(=O)OCC(C)(C)C2 | 1 to 10 µM |
| CCn1c(-c2cccnc2COC)c2c3cc(ccc31)-c1cc(O)cc(c1)C[C@H](NC(=O)[C@H](C(C)C)N(C)C(=O)[C@H]1CCNC1)C(=O)N1CCC[C@H](N1)C(=O)OCC(C)(C)C2 | 1 to 10 µM |
| CCn1c(-c2cccnc2[C@H](C)OC)c2c3cc(ccc31)-c1csc(n1)C[C@H](NC(=O)[C@H](C(C)C)N(C)C(=O)N1CC([C@@H](C)N(C)C)C1)C(=O)N1CCC[C@H](N1)C(=O)OCC(C)(C)C2 (atropisomer, axis not shown) | 0.1 to 1 µM |
| C=CC(=O)N1CC[C@H](C(=O)N(C)[C@H](C(=O)N[C@H]2Cc3cc(O)cc(c3)-c3ccc4c(c3)c(c(-c3ccccc3[C@@H](C)OC)n4CC)CC(C)(C)COC(=O)[C@@H]3CCCN(N3)C2=O)C(C)C)C1 | 0.1 to 1 µM |
| CCn1c(-c2cccnc2[C@H](C)OC)c2c3cc(ccc31)-c1cc(O)cc(c1)C[C@H](NC(=O)[C@H](C(C)C)N(C)C(=O)[C@@H]1C[C@@H]1F)C(=O)N1CCC[C@H](N1)C(=O)OCC(C)(C)C2 | 0.01 to 0.1 µM |
| CCn1c(-c2cccnc2[C@H](C)OC)c2c3cc(ccc31)-c1csc(n1)C[C@H](NC(=O)[C@H](C(C)C)N(C)C(=O)N1CC[C@]3(CCN(C)C3=O)C1)C(=O)N1CCC[C@H](N1)C(=O)OCC(C)(C)C2 (single isomer, unassigned) | 1 to 10 µM |
| CCn1c(-c2cccnc2[C@H](C)OC)c2c3cc(ccc31)-c1csc(n1)C[C@H](NC(=O)[C@H](C(C)C)N(C)C(=O)N1CC3(CC(O)C3)C1)C(=O)N1CCC[C@H](N1)C(=O)OCC(C)(C)C2 (atropisomer, axis not shown) | 0.1 to 1 µM |
| CCn1c(-c2cccnc2[C@H](C)OC)c2c3cc(ccc31)-c1cccc(c1)C[C@H](NC(=O)[C@@H](COC1CN(C(=O)C#C[C@@H]3COCCN3C)C1)C(C)C)C(=O)N1CCC[C@H](N1)C(=O)OCC(C)(C)C2 (atropisomer, axis not shown) | > 10 µM |
| CCn1c(-c2cccnc2[C@H](C)OC)c2c3cc(ccc31)-c1cccc(c1)C[C@H](NC(=O)[C@H](C(C)C)N(C)C(=O)[C@H]1CCN(C(=O)C#CC3CC(F)(F)CN3C)C1)C(=O)N1CCC[C@H](N1)C(=O)OCC(C)(C)C2 (some centres unmarked) | 1 to 10 µM |
| C=CC(=O)N1CC[C@H](C(=O)N(C)[C@H](C(=O)N[C@H]2Cc3cc(O)cc(c3)-c3ccc4c(c3)c(c(-c3ccc(C5CCN(C)CC5)cc3)n4CC)CC(C)(C)COC(=O)[C@@H]3CCCN(N3)C2=O)C(C)C)C1 | 1 to 10 µM |
| CCn1c(-c2cccnc2[C@H](C)OC)c2c3cc(ccc31)-c1csc(n1)C[C@H](NC(=O)C1CCC1)C(=O)N1CCC[C@H](N1)C(=O)OCC(C)(C)C2 | 0.1 to 1 µM |
| CCn1c(-c2cccnc2[C@H](C)OC)c2c3cc(ccc31)-c1csc(n1)C[C@H](NC(=O)c1ccccn1)C(=O)N1CCC[C@H](N1)C(=O)OCC(C)(C)C2 | 0.1 to 1 µM |
| CCn1c(-c2cccnc2[C@H](C)OC)c2c3cc(ccc31)-c1csc(n1)C[C@H](NC(=O)[C@H](C(C)C)N(C)C(=O)N1CCN(C(=O)[C@H]3CCCN3C)CC1)C(=O)N1CCC[C@H](N1)C(=O)OCC(C)(C)C2 (atropisomer, axis not shown) | 0.1 to 1 µM |

Where do these numbers come from? They come from patent US20230233569A1.
